System: MALME-3M melanoma
EXPERIMENT SUMMARY: NCI-60 one-dose screen, 48 h (100 = growth as untreated, 0 = no growth, -100 = all killed)
APPLIED CONDITIONS: 10 µM unless noted
About 83,000 compounds went through this panel and 20% of them were active in at least one assay; those are over-represented in the sample as a whole.
MEASURED PROPERTY: growth (%)
Only the number, expressed in %, is required.

Need growth of Cc1ccc(-c2nc3nc(-c4ccc(Cl)cc4)nc(N4CCCNCC4)c3o2)cc1 , thanks.
91.8

Give its growth value. Item: COC(=O)/C=C1/SC(N2N=C(c3cccs3)CC2c2ccc(F)cc2)=NC1=O (centres undefined)
79.7

Please look up its growth: Cc1c(CC(=O)OCCO)cc(-c2ccc(Cl)cc2)n1-c1ccccc1
103

Consider the compound O=C(CN1C(=O)S/C(=C\C(Cl)=C\c2ccccc2)C1=O)NCCCn1ccnc1 and give its measured growth.
25.4

From: PubChem BioAssay (NCI)
